Data credit: BindingDB's records for doi:10.1021/jm0603668

Experiment: Activity at human TP receptor in platelet rich plasma assessed as inhibition […]-induced platelet aggregation
measurement-name: pIC50
pIC50 here is simply -log10 of the concentration when that concentration is written in mol/L.

Q: For the compound "CC(=O)c1cc(F)cc2c3c(n(Cc4ccc(Cl)cc4)c12)[C@@H](CC(=O)O)CC3" , what pIC50 is on record?
A: 5.85

Q: Field request: pIC50 | item: "O=C(O)C[C@H]1CCc2c1n(Cc1ccc(Cl)cc1)c1c(Br)cc(F)cc21"
A: 7.10
